meta.source: patent US20250250357A1

molecular target: T1, human MSLN-R1-his protein (human, UniProt Q13421 296-390); assay: ELISA, coated antigen; antibody 100 nM
T1 construct: also called human MSLN-R1 protein; hMSLN-R1-his; not shown: His tag
T1 sequence (Q13421 other isoform, or with tags, fused parts or gaps): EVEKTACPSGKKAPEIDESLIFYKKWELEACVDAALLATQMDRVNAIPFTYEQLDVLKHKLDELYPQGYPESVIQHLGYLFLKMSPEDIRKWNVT
Overview of recorded OD450 for various binders
I only need the number, in OD450, no unit after it.

Consider the reported OD450 for these binders:
S009-F4-94.15 (antibody, human IgG1, kappa, V domains shown, Human-murine chimeric antibody, human IgG1/kappa constant regions) VH: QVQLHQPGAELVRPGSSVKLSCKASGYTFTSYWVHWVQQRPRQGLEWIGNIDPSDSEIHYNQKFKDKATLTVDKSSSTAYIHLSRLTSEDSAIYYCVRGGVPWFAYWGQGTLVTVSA VL: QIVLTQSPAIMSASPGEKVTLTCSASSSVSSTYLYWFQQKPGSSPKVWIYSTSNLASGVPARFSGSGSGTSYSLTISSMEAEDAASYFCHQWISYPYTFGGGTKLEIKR; 0.07
S009-F5-9.16 (antibody, human IgG1, kappa, V domains shown, Human-murine chimeric antibody, human IgG1/kappa constant regions) VH: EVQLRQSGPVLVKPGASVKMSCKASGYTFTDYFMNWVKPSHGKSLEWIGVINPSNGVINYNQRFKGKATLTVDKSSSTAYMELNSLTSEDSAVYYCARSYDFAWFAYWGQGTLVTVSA VL: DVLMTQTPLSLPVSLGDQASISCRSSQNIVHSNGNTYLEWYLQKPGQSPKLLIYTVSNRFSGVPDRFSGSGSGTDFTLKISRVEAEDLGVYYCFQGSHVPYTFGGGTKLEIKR; 0.09
S009-F6-76.1 (antibody, human IgG1, kappa, V domains shown, Human-murine chimeric antibody, human IgG1/kappa constant regions) VH: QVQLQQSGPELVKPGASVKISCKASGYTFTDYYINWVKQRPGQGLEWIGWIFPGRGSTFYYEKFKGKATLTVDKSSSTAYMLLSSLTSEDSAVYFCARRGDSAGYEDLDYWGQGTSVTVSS VL: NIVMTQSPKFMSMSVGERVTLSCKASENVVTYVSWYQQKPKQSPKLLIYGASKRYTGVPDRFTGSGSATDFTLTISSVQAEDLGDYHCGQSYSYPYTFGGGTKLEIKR; 0.06

Let us examine a further case.
// query Fill blank: measured OD450 of the binder S009-F4-127.10 (antibody, human IgG1, kappa, V domains shown, Human-murine chimeric antibody, human IgG1/kappa constant regions) VH: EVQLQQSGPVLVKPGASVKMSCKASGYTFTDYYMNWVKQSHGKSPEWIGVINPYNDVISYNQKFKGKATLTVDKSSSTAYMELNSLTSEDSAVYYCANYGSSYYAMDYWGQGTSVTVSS VL: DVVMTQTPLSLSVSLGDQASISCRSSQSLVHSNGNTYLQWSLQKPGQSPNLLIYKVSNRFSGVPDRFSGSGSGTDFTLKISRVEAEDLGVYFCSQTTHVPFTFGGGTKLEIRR is ____.
// result 0.08
